study target: carbonic anhydrase II (wild-type CAII) (Homo sapiens, UniProt P00918)
quantity measured: pKi
Reminder that pKi is minus the log10 of a molar concentration.

Inquiry: Which value of pKi has been reported for "CCc1cc2c(cc1OS(N)(=O)=O)CC[C@@H]1[C@@H]2CC[C@]2(C)C=CC[C@@H]12" in the records?
Reply text: 6.24
